The reported numbers originate from PubChem BioAssay AID624305.

# Assay Comment: qHTS assay for re-activators of p53 using a Luc reporter: Hit Validation; note: nearly all actives have a fitted effect of over 75% in size
# Test Settings: p53-responsive luciferase reporter cells, luminescence, H1299 line expressing heat-sensitive Ala138Val p53; series mostly up to 46.1 µM
Records with an inconclusive call do not appear. Activity calls are given as the source filed them. Calls come from the whole dose curve; as a rule, active = well fitted activation curve with a large enough effect; inconclusive = small, poorly fitted or top-dose-only effect; inactive = no such curve, though single readings can be large or run the other way.
Select the correct class. Options are T for active, F for inactive and nothing else.

Compound: CS(=O)(=O)n1nc(-c2ccc(Cl)cc2)nc1SCc1ccccc1
Class Name: T

Prompt: GET /call?item= Cn1c(CCN2CCCCC2)nc2cc(NC(=O)Nc3ccccc3)ccc21 returns the recorded outcome of this test.
Completion: F

Prompt: GET /call?item= c1ccc(COc2ccc(OCCOCCn3cncn3)cc2)cc1 returns the recorded outcome of this test.
Completion: T

Prompt: GET /call?item= CC1CCC(NC(=O)C2CCN(C(=O)Nc3ccccc3)CC2)CC1 (stereo unspecified) returns the recorded outcome of this test.
Completion: F

Prompt: GET /call?item= CCOc1ccc(-c2cnc3ccccc3n2)cc1 returns the recorded outcome of this test.
Completion: F

Prompt: GET /call?item= COc1ccc2c(c1)Cc1sc(NC(C)=O)nc1-2 returns the recorded outcome of this test.
Completion: T

Prompt: GET /call?item= NC(=O)c1cc2ccc(O)cc2oc1=Nc1ccccc1 returns the recorded outcome of this test.
Completion: F

Prompt: GET /call?item= Cc1cc(CC(C)C)n(-c2nc3ccccc3c(=O)n2OCC(N)=O)n1 returns the recorded outcome of this test.
Completion: F

Prompt: GET /call?item= CCOC(=O)c1c(NC(=O)C2COc3ccccc3O2)sc2c1CCN(Cc1ccccc1)C2 (stereo unspecified) returns the recorded outcome of this test.
Completion: F

Prompt: GET /call?item= Cc1c(C(=O)N(C)c2ccccc2Cl)cnn1-c1ccccc1 returns the recorded outcome of this test.
Completion: F

Prompt: GET /call?item= Cc1cccc(/C(N)=N/OC(=O)c2ccc3c(c2)OCO3)c1 returns the recorded outcome of this test.
Completion: T
